These entries and their values trace back to paper PMC11422593.

TGT: HLA-B∗39:01 (Homo sapiens, UniProt P01889, A182T/A93T/A95T/C349S/D138N/D201E/E176V/E187T/E204Q/K202T/Q94N/R155S/R180L/S121R/Y140F/Y91C)
Construct: made in house
PROTOCOL DETAILS: biochemical
Assay type: binding
No end group written: not given here.
IC50 vs 300 nM: less than gives Condition met; not less than gives Condition not met.

>>> assigned_class("YHFLQIPT")
"Condition not met"
>>> assigned_class("THFPHQVIL")
"Condition met"
>>> assigned_class("FLFLFAVG")
"Condition not met"
>>> assigned_class("SHLVEALYL")
"Condition not met"
>>> assigned_class("SASIPLTVVA")
"Condition not met"
>>> assigned_class("MRLLPLLA")
"Condition met"
>>> assigned_class("WMRLLPLLA")
"Condition not met"
>>> assigned_class("TNLFLFLFAV")
"Condition not met"
>>> assigned_class("FRLLCALTSL")
"Condition met"
>>> assigned_class("MRLLPLLAL [MRLLPLLAL]")
"Condition met"
>>> assigned_class("NRVMLPKAA")
"Condition met"
>>> assigned_class("NRVMLPKA")
"Condition met"

---

TGT: HLA-B∗39:06 (purified MHC molecules) (human)
PROTOCOL DETAILS: radioligand binding
Entries and their measured IC50 follow.
READOUT NAME: IC50 (nM)

>>> observed_measurement("YHFLQIPT (human G6Pase 2, position 307) (peptide)")
151
>>> observed_measurement("NRVMLPKA (NLRP2, position 320, 8mer) (peptide)")
41
>>> observed_measurement("MRLLPLLA (human insulin, position 5, 8mer) (peptide)")
41
